The measured values listed here are drawn from patent US10934282B2.

Documented pEC50 across a set of compounds
Molecular target: human RORgt nuclear receptor (RORgT ligand binding domain protein) (Homo sapiens, UniProt P51449)
Sequence (P51449 with tags, fused parts or gaps): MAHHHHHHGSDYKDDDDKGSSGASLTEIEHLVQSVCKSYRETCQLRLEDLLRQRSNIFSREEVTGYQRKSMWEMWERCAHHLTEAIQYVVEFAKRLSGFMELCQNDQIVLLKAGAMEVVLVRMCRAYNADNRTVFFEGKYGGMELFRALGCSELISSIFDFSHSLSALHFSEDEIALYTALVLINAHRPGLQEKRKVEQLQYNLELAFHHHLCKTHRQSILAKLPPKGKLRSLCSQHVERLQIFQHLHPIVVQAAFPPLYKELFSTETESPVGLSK
Experiment: ROR-gamma binding assay (Scintillation Proximity Assay, displacement of [3H]-25-hydroxycholesterol)
Details: EC50, SPA, 15 nM [3H]-25-Hydroxycholesterol, RORgT LBD 12 nM
As a rule, pEC50 stands for the negative log10 of the concentration, concentration in M.

Cc1cc(CN2CCN(C(=O)OC(C)C)[C@@H](C)C2)c(C)c(Nc2nnc([C@H]3C[C@@H](O)C3)o2)c1 :: 7.39
Cc1c(CN2CCN(C(=O)c3ccccc3)[C@@H](C)C2)cc(Cl)cc1Nc1nnc(C#N)o1 :: 7.40
Cc1cc(CN2CCN(C(=O)OC(C)(C)C)[C@@H](C)C2)c(C)c(Nc2nnc(-c3ccno3)o2)c1 :: 7.58
Cc1cc(CN2CCN(C(=O)OC(C)C)[C@@H](C)C2)c(C)c(Nc2nnc([C@H](C)N)o2)c1 :: 7.04

Here is the next item to consider.
Q: Give its pEC50 value. Item: `CCC(F)(F)C(=O)N1CCN(Cc2cc(C)cc(Nc3nnc([C@@H](C)O)o3)c2C)C[C@@H]1C`
A: 7.14
